B1: VPS39 (parent)
chain: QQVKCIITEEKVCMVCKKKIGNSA

- Variants of: B1
- method.notes: protein stability index of a GFP-peptide fusion (GPS, HEK-293T) (PSI 1-6); higher = more stable;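 further: lentivirally expressed fusions sorted by FACS into six bins by GFP to DsRed ratio, PSI derived from sequencing read proportions per bin multiplied by bin number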
- condition.set: c terminus: a fixed tail appended
Short version: protein stability index at least 2 is rule met, less is rule not met.

construct.sequence: QQVQCIITEEKVCMVCKKKIGNSA
category.label: rule met
--
construct.sequence: QQVKCIITEEKVCQVCKKKIGNSA
category.label: rule met
--
construct.sequence: QQVKCIITEIKVCMVCKKKIGNSA
category.label: rule met
--
construct.sequence: MQVKCIITEEKVCMVCKKKIGNSA
category.label: rule not met
--
construct.sequence: QQVKCIITNEKVCMVCKKKIGNSA
category.label: rule not met
